meta.source: the supplement of paper PMC10127200

Test system: 786-O
protocol.summary: Euclidean distance of Cell Painting phenotypic profile (signed KS, 77 features) to DMSO centroid (dimensionless distance); 5 or 10 uM (library dependent); higher = stronger phenotypic change vs DMSO (phenoactivity)
measurement.conditions: 48 h
assay.endpoint: Euclidean distance

C[C@]12CC[C@@H]3c4ccc(O)cc4CC[C@H]3[C@@H]1CC[C@@H]2OC(=O)CCC1CCCC1 [Estradiol Cypionate]    1.29
OCC(CO)N[C@H]1C[C@](O)(CO)[C@@H](O)[C@H](O)[C@H]1O [Voglibose]    0.92
S=P(N1CC1)(N1CC1)N1CC1 [Thiotepa]    2.52
COc1cc(N2CCC(N)CC2)ccc1Nc1ncc(Cl)c(-c2c[nH]c3ccccc23)n1    2.97
CC(C)Oc1ccc(-c2nc(-c3cccc4c3CC[C@@H]4NCCO)no2)cc1C#N [Ozanimod (RPC1063)]    1.97
